System: UniProt P28074 | Read-out: pIC50
# pIC50: negative log10 of molar concentration; output just the value

Incoming: Form field: reported pIC50 of "COc1ncccc1/C=C/c1nsc(=O)o1"
Outgoing: 4.53

Incoming: Next: "O=c1oc(/C=C/c2c[nH]c3ccccc23)ns1"
Outgoing: 5.30

Turning now to a further record.
Incoming: Could you share which pIC50 value was measured for "CO[C@H](c1ccccc1)c1nsc(=O)o1" ?
Outgoing: 5.24

###

target: human 20S proteasome (chymotrypsin-like activity, with PA28 activator) (Homo sapiens, UniProt P28074)
Sequence (P28074 60-263): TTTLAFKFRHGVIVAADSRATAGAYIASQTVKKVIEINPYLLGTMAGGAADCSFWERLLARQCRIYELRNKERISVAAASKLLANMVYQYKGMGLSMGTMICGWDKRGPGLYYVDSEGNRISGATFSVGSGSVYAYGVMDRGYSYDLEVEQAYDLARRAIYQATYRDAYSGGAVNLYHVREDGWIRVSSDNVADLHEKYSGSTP
Sequence (P25786 whole entry partner): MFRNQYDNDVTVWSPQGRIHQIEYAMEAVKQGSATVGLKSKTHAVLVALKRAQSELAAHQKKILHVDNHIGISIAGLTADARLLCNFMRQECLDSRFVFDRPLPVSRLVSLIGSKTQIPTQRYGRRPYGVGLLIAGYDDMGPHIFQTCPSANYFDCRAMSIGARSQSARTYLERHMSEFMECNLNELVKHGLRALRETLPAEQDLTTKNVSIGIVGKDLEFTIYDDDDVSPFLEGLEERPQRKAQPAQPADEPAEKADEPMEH
In this section we review reported log10 of IC50 values for a set of compounds.
Record value = log10 of IC50 given in µM.

Some solved cases for reference:
Incoming: // log10 of IC50 lookup, key: O=c1oc(/C=C/c2cc(Cl)ccc2Cl)ns1 [compound 40]
Outgoing: 1.70

Incoming: For O=c1oc(/C=C/c2ccc([N+](=O)[O-])cc2)ns1 [compound 36] then?
Outgoing: 1.41

Others:
Incoming: Would you mind telling me what log10 of IC50 value was observed for O=Cc1ccc(/C=C/c2nsc(=O)o2)cc1 [compound 38] ?
Outgoing: 1.51

Incoming: Another compound to look at: CC(C)c1ccc(/C=C/c2nsc(=O)o2)cc1 [compound 29]
Outgoing: 1.16

Incoming: Next compound up: O=C(c1ccccc1)c1ccc(/C=C/c2nsc(=O)o2)cc1 [compound 34]
Outgoing: 1.94

Incoming: How about COc1cccc(-c2nsc(=O)o2)c1 [compound 3] ?
Outgoing: 1.18

Incoming: Try this compound too: O=c1oc(CF)ns1 [compound 8, 5-(Fluoromethyl)-1,3,4-oxathiazol-2-one]
Outgoing: 0.15

###

assay: physchem; details: ch3cn+pbs (1+1), pH 7.4
Observation Type: remaining at 24 h, 50 µM (%)
Please respond with the number in % and leave the unit unwritten.

The cases that follow already have their remaining at 24 h, 50 µM on record.
Incoming: So what does the record say about remaining at 24 h, 50 µM for Cc1ccc(/C=C/c2nsc(=O)o2)cc1 [compound 30] ?
Outgoing: 96

Incoming: Now consider N#Cc1ccc(/C=C/c2nsc(=O)o2)cc1 [compound 37] and answer again.
Outgoing: 95.4

Incoming: What do we get for CCc1ccccc1/C=C/c1nsc(=O)o1 [compound 46] ?
Outgoing: 98

Incoming: Then this molecule: COC(=O)c1ccc(/C=C/c2nsc(=O)o2)cc1 [compound 35]
Outgoing: 97.3

More entries:
Incoming: Requested read-out: remaining at 24 h, 50 µM. Entry: CCc1ccc(/C=C/c2nsc(=O)o2)cc1 [compound 31]
Outgoing: 98.2

###

experiment: physchem; settings: ch3cn+pbs (1+1), pH 7.4
Listed here: items and their measured remaining at 24 h, 50 µM.
Respond numerically; units are % and should not be typed.

A selection of reference data follows.
Incoming: What does the data say about its remaining at 24 h, 50 µM? Entry: "O=C(c1ccccc1)c1ccc(/C=C/c2nsc(=O)o2)cc1"
Outgoing: 96.1

Incoming: Entry "O=c1oc(/C=C/c2cccc(OC(F)(F)F)c2)ns1" please
Outgoing: 96.2

Incoming: Moving on to the next molecule: "O=c1oc(/C=C/c2ccccc2OC(F)(F)F)ns1"
Outgoing: 95.7

Incoming: // query: "O=c1oc(/C=C/c2ccc([N+](=O)[O-])cc2)ns1"
Outgoing: 96.9

Switching to the query record.
Incoming: // remaining at 24 h, 50 µM lookup, key: "CC(C)c1ccc(/C=C/c2nsc(=O)o2)cc1"
Outgoing: 99.8
